Test system: NB14 (Neuroblastoma)
TEST PROTOCOL: combination Emax (second highest fraction inhibited in the dose matrix, 72 h); higher = more inhibition; extreme values may be limits of the assay
EXPERIMENTAL READOUT: combination Emax
Could you respond with only the numeric value?

{"columns": ["MOLECULE", "ENDPOINT VALUE"],
 "data": [
  ["Cc1c2c(nn1C)CSCc1cc(n(C)n1)CSc1cc(c3ccccc3c1)OCCCc1c(C(=O)O)n(C)c3c-2c(Cl)ccc13 [AZD5991] + CC(=O)O[C@H]1C(=O)[C@@]2(C)[C@H]([C@H](OC(=O)c3ccccc3)[C@]3(O)C[C@H](OC(=O)[C@H](O)[C@@H](NC(=O)c4ccccc4)c4ccccc4)C(C)=C1C3(C)C)[C@]1(OC(C)=O)CO[C@@H]1C[C@@H]2O [Paclitaxel] (first compound max 1 µM, 7x7, partner max 3 µM)", 1],
  ["Cc1cc2ncnn2cc1Nc1ncc2c(n1)n(C1CCOCC1)c(=O)n2C [AZD7648] + O=C(c1cc(Cc2n[nH]c(=O)c3ccccc23)ccc1F)N1CCN(C(=O)C2CC2)CC1 [Olaparib] (first compound max 10 µM, 7x7, partner max 10 µM)", 0.508],
  ["C[C@@H]1COCCN1c1cc(C2([S@](C)(=N)=O)CC2)nc(-c2ccnc3[nH]ccc23)n1 [AZD6738] + Nc1ccn([C@@H]2O[C@H](CO)[C@@H](O)C2(F)F)c(=O)n1 [Gemcitabine] (first compound max 10 µM, 7x7, partner max 0.3 µM)", 1],
  ["C[C@@H](c1ccc2nccn2c1)n1nnc2ncc(-c3cnn(C)c3)nc21 [Savolitinib] + CC1(C)CCC(CN2CCN(c3ccc(C(=O)NS(=O)(=O)c4ccc(NCC5CCOCC5)c([N+](=O)[O-])c4)c(Oc4cnc5[nH]ccc5c4)c3)CC2)=C(c2ccc(Cl)cc2)C1 [Venetoclax] (first compound max 1 µM, 7x7, partner max 1 µM)", 0.114],
  ["Cc1c2c(nn1C)CSCc1cc(n(C)n1)CSc1cc(c3ccccc3c1)OCCCc1c(C(=O)O)n(C)c3c-2c(Cl)ccc13 [AZD5991] + C1CN(CCC1(C(=O)N[C@@H](CCO)C2=CC=C(C=C2)Cl)N)C3=NC=NC4=C3C=CN4 [Capivasertib] (first compound max 1 µM, 7x7, partner max 3 µM)", 0.89]
]}

### Prompt # lookup: combination Emax of CN(CCO)CC[C@H](CSc1ccccc1)Nc1ccc(S(=O)(=O)NC(=O)c2ccc(N3CCC([C@@H](O)c4ccccc4-c4ccc(Cl)cc4)CC3)cc2)cc1S(=O)(=O)C(F)(F)F [AZD4320] + CS(=O)(=O)CCNCc1ccc(-c2ccc3ncnc(Nc4ccc(OCc5cccc(F)c5)c(Cl)c4)c3c2)o1 [Lapatinib] (first compound max 1 µM, 7x7, partner max 10 µM)
### Response 0.993
